These entries and their values trace back to PubChem BioAssay (NCI).

Test system: SK-MEL-2 melanoma
Assay: NCI tumour cell line growth inhibition, 48 h
READOUT: TGI

MOLECULE: Clc1cccc(Cl)c1C1SCc2nc3ncccc3n21 (configuration not stated)
SYSTEM: SK-MEL-2 melanoma
VALUE REPORTED: > 100 µM

MOLECULE: OCCCNC(=S)Nc1ccc(-c2nc3ccccc3s2)cc1
SYSTEM: SK-MEL-2 melanoma
VALUE REPORTED: > 100 µM

MOLECULE: CC1(C)OC([C@H](O)CO)C([C@H]2NCCS2)O1 (some centres not stated)
SYSTEM: SK-MEL-2 melanoma
VALUE REPORTED: > 100 µM

MOLECULE: CCCC[Si](CCCC)(CCCC)O[C@@H](/C=C/C(=O)OCC)[C@H](Cc1ccccc1)O[Si](CCCC)(CCCC)CCCC
SYSTEM: SK-MEL-2 melanoma
VALUE REPORTED: > 100 µM

MOLECULE: C[C@H]1[C@H](C)CC[C@]2(C(=O)O)CC[C@]3(C)C(=CC[C@@H]4[C@@]5(C)CC[C@H](OC(=O)/C=C\c6ccc(O)cc6)C(C)(C)[C@@H]5CC[C@]43C)[C@H]12
SYSTEM: SK-MEL-2 melanoma
VALUE REPORTED: > 100 µM

Kindly give each listed record's TGI.
1. CCOCC[P+](c1ccccc1)(c1ccccc1)c1ccccc1
2. CO[C@H]1C[C@H](O[C@H]2CC[C@]3(C=O)[C@H]4CC[C@]5(C)[C@@H](C6=CC(=O)OC6)CC[C@]5(O)[C@@H]4CC[C@]3(O)C2)O[C@H](C)[C@H]1O[C@@H]1O[C@H](CO[C@@H]2O[C@H](CO)[C@@H](O)[C@H](O)[C@H]2O)[C@@H](O)[C@H](O)[C@H]1O

a:
1: 47.9 µM; 2: 0.907 µM

* * *

System: HCT-15 colon
Assay: NCI tumour cell line growth inhibition, 48 h
READOUT: GI50

Reference set (3 entries):
SMI: O=C(O)c1cn(C2CC2)c2cc(N3CCN(C(=O)Nc4nc(-c5ccc(Cl)cc5)cs4)CC3)c(F)cc2c1=O
GI50: 1.71 µM
//
SMI: Cn1cc(-c2nc(-c3cn(C)c4ncccc34)cs2)c2cc(F)ccc21
GI50: 1.51 µM
//
SMI: CCOCC[P+](c1ccccc1)(c1ccccc1)c1ccccc1
GI50: 73.8 µM

Now consider a different compound.
q: Query: GI50; subject: `O=C1C=CC(=O)N1CCCCCCCCCCN1C(=O)C=CC1=O`
a: 10.3 µM

* * *

Test system: MDA-MB-231 breast
Assay: NCI tumour cell line growth inhibition, 48 h
READOUT: TGI (µM)
One number for each entry, in µM.

MOLECULE: Cc1c(C)c(C)c(CSC(=N)N)c(C)c1C
SYSTEM: MDA-MB-231 breast
TGI / µM: 27.1

MOLECULE: CCOC(=O)c1c2c(n3cccc(F)c13)C(=O)c1ncccc1C2=O
SYSTEM: MDA-MB-231 breast
TGI / µM: 64.7

MOLECULE: CC(C)(Cc1ccccc1)Cc1cc(O)ccc1O
SYSTEM: MDA-MB-231 breast
TGI / µM: 39.2

Kindly give each listed record's TGI.
1. Cc1ccc(S(=O)(=O)N2C/C(=C\c3cc(F)cc(F)c3)C(=O)/C(=C/c3cc(F)cc(F)c3)C2)cc1
2. COc1ccc2c(c1)N(CCO)C1=C(C(=O)OC1)C2c1cccc(Br)c1 (stereo not given)
3. O=C1/C(=C/c2cccc([N+](=O)[O-])c2)N=C(c2ccccc2)N1c1ccc2c(c1)Sc1cc(N3C(=O)/C(=C/c4cccc([N+](=O)[O-])c4)N=C3c3ccccc3)ccc1N2
4. CN(C)CCOc1cccc(NC2=C(Cl)C(=O)C(Nc3cccc(OCCN(C)C)c3)=C(Cl)C2=O)c1
5. Cn1cc(C2=C(c3cccc(NCC(O)CO)c3)C(=O)NC2=O)c2cc(Cl)ccc21 (stereo not given)
6. O=C(CN/C=C\C(=O)c1cc(Cl)ccc1Cl)c1ccccc1
7. CC1=C/C(=C(/c2ccc(O)c(C)c2)c2ccccc2C(=O)O)C=CC1=O

a:
0.867
19.4
89.8
1.17
15.5
47.5
40.4

Kindly give each listed record's TGI.
1. Nc1nc(Cl)cc(NCC2(CO)CCC(OCc3ccccc3)C2)n1 (stereo not given)
2. CC1(C)CC[C@]2(C(=O)O)CC[C@]3(C)C(=CC[C@@H]4[C@@]5(C)CC[C@@H]6OC(C)(C)OC[C@@]6(C)[C@@H]5CC[C@]43C)[C@H]2C1

a:
1: 42.8; 2: 12.9

Kindly give each listed record's TGI.
1. CCCCN1C(=O)C[C@H]2[C@@H]3CCc4cc(OCCN5CCCC5)ccc4[C@H]3CC[C@]2(C)C1=O
2. COc1ccc2c(c1)N(CCC1CCCCN1C)c1ccccc1S2 (stereo not given)
3. COc1cc(C2c3cc4c(cc3OC(O)C2C)OCO4)cc(OC)c1O (stereo not given)

a:
1. 15.7
2. 23.6
3. 89.3

* * *

System: OVCAR-3 ovarian
Test: NCI tumour cell line growth inhibition, 48 h
READOUT: TGI (µM)
Give bare numbers, in µM.

Reference set (6 entries):
COMPOUND: O=C1/C(=C/c2ccc(O)cc2)CCc2ccccc21
QUANTITY UNIT: µM
TGI: 52.7
//
COMPOUND: CC1(C)CC[C@]2(C(=O)O)CC[C@]3(C)C(=CC[C@@H]4[C@@]5(C)CC[C@@H]6OC(C)(C)OC[C@@]6(C)[C@@H]5CC[C@]43C)[C@H]2C1
QUANTITY UNIT: µM
TGI: 18.5
//
COMPOUND: N#CC(C#N)=Cc1ccc(-c2ccc(-c3nc4ccccc4s3)cc2)s1
QUANTITY UNIT: µM
TGI: 34.8
//
COMPOUND: COC(=O)/C(Br)=C/c1c[nH]c2ccc(Br)cc12
QUANTITY UNIT: µM
TGI: 66.9
//
COMPOUND: CCCCN1C(=O)C[C@H]2[C@@H]3CCc4cc(OCCN5CCCC5)ccc4[C@H]3CC[C@]2(C)C1=O
QUANTITY UNIT: µM
TGI: 23.7
//
COMPOUND: Cc1cccc2c(=O)c3c(sc12)c(NCCN)nc1ccccc13
QUANTITY UNIT: µM
TGI: 1.79

Kindly give each listed record's TGI.
1. O=C1C=CC(=O)N1CCCCCCCCCCN1C(=O)C=CC1=O
2. CCNCCNc1cc(C2CCCC2)c(C#N)c2nc3ccccc3n12
3. O=C(Nc1cc(Cl)cc(Cl)c1)c1ccc(NC2=C(Cl)C(=O)N(Cc3ccccc3)C2=O)cc1
4. O=C1c2cccnc2-c2nccc3ccnc1c23
5. Cn1cc(C2=C(c3cccc(NCC(O)CO)c3)C(=O)NC2=O)c2cc(Cl)ccc21 (configuration not stated)
6. Cc1ccc(S(=O)(=O)N2C/C(=C\c3cc(F)cc(F)c3)C(=O)/C(=C/c3cc(F)cc(F)c3)C2)cc1

a:
15.1
3.18
5.37
1.49
7.78
1.27

Kindly give each listed record's TGI.
1. C=C1C(=O)O[C@H]2[C@H]3O[C@@H](C[C@@H]12)[C@](C)(O)CCCC(C)=CCC[C@H]3C
2. CC1OC2OC3C(OCC(O)C3O)OC(=O)[C@]34CCC(C)(C)CC3C3=CCC5[C@@]6(C)C[C@H](O)[C@H](OC7OC(CO)C(O)C(O)C7OC7OC(COC(=O)CC(C)(O)CC(=O)OC1C(O)C2O)C(O)C(O)C7O)[C@@](C)(CO)C6CC[C@@]5(C)[C@]3(C)CC4 (some centres not stated)
3. COc1cc([C@@H]2c3cc4c(cc3[C@@H](NC(=O)c3ccc([N+](=O)[O-])cc3)C3COC(=O)[C@@H]32)OCO4)cc(OC)c1O (some centres not stated)
4. C=C1CCC2C(C)(CO)C(O)CCC2(C)C1CC(O)C1=CCOC1=O (configuration not stated)
5. COC(=O)[C@]1(C)CCC[C@]2(C)C3CC4OOC3(C=C4C(C)C)CCC21 (some centres not stated)
6. Clc1ccc(-c2cc(-c3nc4ccccc4[nH]3)no2)cc1

a:
27.5
3.15
4.81
58.9
76.6
35.7

q: Query: TGI; subject: O=C1c2ccc3ccccc3c2CCC1N1CCCCC1 (configuration not stated)
a: 28.8

* * *

Tested on: SNB-19 CNS
Experiment: NCI tumour cell line growth inhibition, 48 h
Where a SMILES comes first, the peptide text is derived from it. Bridges are numbered along the chain shown (N, C = ends). Roman numbers before positions name the chains, in order. [ ]: non-standard residue; d: D form. The star is where a group is joined. Heptadecanoyl = CCCCCCCCCCCCCCCCC(=O)*; Phg = N[CH](C(=O)O)c1ccccc1
READOUT: GI50

Reference set (3 entries):
COMPOUND: CCCCCCCCCCCCCCCCC(=O)N1CCCC1C(=O)NCC(=O)NC(C(=O)N1CCCC1C(=O)NC(CO)C(=O)NC(Cc1ccc(O)cc1)C(=O)NC(CCCCNC(=O)C1CCCN1C(=O)C(CCCCN)NC(=O)C(CCCCN)NC(=O)C(CCCCN)NC(=O)C(CCCNC(=N)N)NC(=O)C(CCCCN)NC(=O)C(N)C(C)C)C(=O)NC(CC(C)C)C(=O)NC(CCCNC(=N)N)C(=O)N1CCCC1C(=O)NCC(N)=O)c1ccccc1 (centres undefined) (I: Heptadecanoyl-PG[Phg]PSYKLRPG-NH2 / II: H-VKRKKKP; amide I:7-II:C; configuration not given here)
GI50: 31.2 µM
//
COMPOUND: COc1ccc2c(c1)c(=O)oc1cc(OC/C(=N\O)c3ccc(F)cc3)ccc12
GI50: 12.2 µM
//
COMPOUND: Cn1cc(-c2nc(-c3cn(C)c4ncccc34)cs2)c2cc(F)ccc21
GI50: 2.89 µM

Now consider a different compound.
q: Query for SNB-19 CNS: what GI50 does the record show for `COc1ccc2c(c1)CC[C@@H]1[C@@H]2CC[C@]2(C)c3c(cc(C(=O)c4ccccc4)c4sccc34)C[C@@H]12` ?
a: > 100 µM
